- Test system: MS2 coat protein
- method_summary: apparent KD of MS2 coat protein; designed switch direction (-1 OFF switch, 1 ON switch): -1; higher = weaker reporter binding
- run_conditions: input ligand: none
assay_metric: apparent KD of MS2 coat protein (nM)
Please reply with the bare figure in nM and do not write the unit itself.

In plain terms, UUUUUACAUGAGGAUCACCCAUGUGAGGAUAUGGAGCGCGACCGCGCGGUCGCGUACACCAGAAGGCGCAUGAU [1st #77] (Eterna round: R97, puzzle: Exclusion 1) has a documented apparent KD of MS2 coat protein of 51.7

In plain terms, ACAUGAGGAUCACCCAUGUGACAAUAAUGGCUGAUACAGAGACAGGAUAUAGGUGCAUAUCUAACCUAGAAGGGUCAUGACUGG [Deportation 72 - Jieux - Exclusion NG 3] (Eterna round: R96, puzzle: Exclusion NG 3) has a documented apparent KD of MS2 coat protein of 36.6

In plain terms, UUUUAACAUGAGGAUCACCCAUGUGAGGAUAUGGUUUUUUUUUUUUUUUUUUUUUUUUCCAGAAGGCACAUUUU [My solution] (Eterna round: R96, puzzle: Exclusion 1) has a documented apparent KD of MS2 coat protein of 31.6

---

- Tested on: K4 kissing-loop RNA reporter
- method_summary: apparent KD of K4 kissing-loop reporter; higher = weaker reporter binding
- run_conditions: Eterna round: R107; input ligand: none
assay_metric: apparent KD of K4 kissing-loop reporter (nM)
Please reply with the bare figure in nM and do not write the unit itself.

As a guide, the following entries are already answered.
• AAAAUAAAGCAGUCAAUCGGAGUGAUGUUCCGAGGACCGGUACGGCCGCCACUCGAGAGUCCAAAGGACUCAUGGCGAGACUGCA [#SwitchBubble 17 #K4Early] = 93.2
• AAGAGAUCGAGAAGGAGCGAGAAAGCUAGUACAUAUGUACUAGCAAAGCAGUGAUGUUGCACUCAGGUAGGUCGCUCGAUCUCAA [AK1 SS Arginine B] = 432

In plain terms, AGUGUUAGGUUAGAUACCAGCCGUCUAUGGAUAAUCCUCAGACCGCCAGUGAUGUUGGCAGGCCCUUGGCAGCUAACAGAACAGA [Reinonor] has a documented apparent KD of K4 kissing-loop reporter of 240

---

- Tested on: K4 kissing-loop RNA reporter;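 also: bound reporter read as fluorescence of individual clusters on recovered sequencing chips by microscopy, with normalized cluster intensities fitted with a binding model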
- method_summary: apparent KD of K4 kissing-loop reporter; higher = weaker reporter binding
- run_conditions: Eterna round: R107; input ligand: tryptophan 2.4 mM
Collected apparent KD of K4 kissing-loop reporter values appear next to each entry.

• GGAGGAGAAUAUGAUACCAGCAGAGAGAGAGAGGAAGUAUAGUGAUGUUAUAUGAGAGAAUGCCCUUGGCAGCAUAAGAAGAAGG [SSTheophylB.A] = 105 nM

In plain terms, `UACCCGUGCUACUCCAUCCAUGCCACACCGCGAGGACCGGUACGGCCGCCACUCGUCGGAAAGUGAUGUUUUCAAACAAAGUUGC` has a documented apparent KD of K4 kissing-loop reporter of 76.9 nM

---

Collected apparent KD of MS2 coat protein values appear next to each entry.
- Test system: MS2 coat protein
- method_summary: apparent KD of MS2 coat protein; designed switch direction (-1 OFF switch, 1 ON switch): 1; higher = weaker reporter binding
- run_conditions: input ligand: FMN 200 uM

As a guide, the following entries are already answered.
* UUGUUUUGUAAUUAACAUGAGGAUCACCCAUGUCUUGGCACAGAGGAUAUACAUGUUUGUUUGUAGUAGAAGGCUGUUUAUUGU [JR_SSNG3_Sub096] (Eterna round: R96, puzzle: Same State NG 3) | 128 nM
* GGCGGAUCCACAUGAGGAUCACCCAUGUAGCGGAGACGCAAUGAGGAUAUCGAUGGGUUUCCCGUCGAGAAGGCAUAAACCGCC [JL SSNG3 3.93 mod 2] (Eterna round: R96, puzzle: Same State NG 3) | 17.8 nM
* UUGUUUAACGUAGGAUAUCGACCUACAUGAGGAUCACCCAUGUCUUUGUAUAGUUUUUUUUGUUACGAGAAGGACGUUUUGUAU [JR_SSNG2_Sub068] (Eterna round: R96, puzzle: Same State NG 2) | 68.6 nM
* ACAUGAGAGAUAGGAUAUCAUGUACCUACAUGUGACAUGAGGAUCACCCAUGUGGUAAGUAUGAGUGAGAAGGAUCAGAUAUGU [Equivalence 35 - Jieux - Same State NG 2] (Eterna round: R96, puzzle: Same State NG 2) | 47.9 nM
* UGCCUGAGUCGAGGAUAUUAUGGAUCCUUUAAUACAUGAGGAUCACCCAUGUAAUUAAUUAUACAUGAGAAGGUGACUCAGGCU [SSNG2/11-B3] (Eterna round: R96, puzzle: Same State NG 2) | 24.3 nM

Noted apparent KD of MS2 coat protein for ACGCCCUCAGUAGGAUAUGGGAAAGGAAGUGUACCAGAAGGACUGGUUGAACAUGAGGAUCACCCAUGUUCAACGACAGGGCAA [PowerStrip SSNG 1.20] (Eterna round: R96, puzzle: Same State NG 1) , tested on MS2 coat protein: 18.6 nM

Noted apparent KD of MS2 coat protein for AGGCUCGUGCUAGGAUAUCUAGGAUAUGGACGAGGAUUACCCGAGCAGCAUUAGCGCACCAGAGGAGAGAAGGAGCGACAUGCG [pwkr ssNG2 2F5 2FMN.11] (Eterna round: R96, puzzle: Same State NG 2) , tested on MS2 coat protein: 5.78 nM
